- tested target: UniProtKB Q00987
- test description: Competitive fluorescence polarization assay for MDM2
- Format: binding
- recorded conditions: competitive FP assay, MDM2; read-out: Ki (MDM2)
measured attribute: Ki

Find the recorded Ki belonging to CCCC[C@H](NC(=O)[C@@H](C)NC(=O)[C@H](C)NC(=O)[C@]1(C)CCCC=CCCCCCC[C@@](C)(NC(=O)[C@H](Cc2ccccc2)NC(=O)[C@@H](NC(=O)[C@H](CC(C)C)NC(C)=O)[C@@H](C)O)C(=O)N[C@@H](C)C(=O)N[C@@H](Cc2ccc(O)cc2)C(=O)N[C@@H](Cc2c[nH]c3ccccc23)C(=O)N[C@@H](C)C(=O)N[C@@H](CCC(N)=O)C(=O)N[C@@H](CC(C)C)C(=O)N1)C(=O)N[C@@H](C)C(N)=O (single isomer, unassigned) and report it.
< 10 nM

# evaluate next
Find the recorded Ki belonging to CC(=O)N[C@@H](CC(C)C)C(=O)N[C@H](C(=O)N[C@@H](Cc1ccccc1)C(=O)N[C@]1(C)CCCCCCC=CCCC[C@@](C)(C(=O)N[C@@H](CO)C(=O)N[C@@H](C)C(=O)N[C@@H](C)C(N)=O)NC(=O)[C@H](CC2CCC2)NC(=O)[C@H](CCC(N)=O)NC(=O)[C@H](C)NC(=O)[C@H](Cc2c[nH]c3ccccc23)NC(=O)[C@H](Cc2ccc(O)cc2)NC(=O)[C@H](Cc2c[nH]cn2)NC1=O)[C@@H](C)O (single isomer, unassigned) and report it.
< 10 nM

###

- tested target: MDM2 (Homo sapiens)
- Sequence (Q00987 1-125): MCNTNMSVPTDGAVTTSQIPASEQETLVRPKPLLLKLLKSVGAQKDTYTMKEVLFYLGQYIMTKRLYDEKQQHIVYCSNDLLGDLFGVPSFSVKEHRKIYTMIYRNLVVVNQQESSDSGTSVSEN
- test description: Competitive fluorescence polarization assay for MDM2
- Format: binding
- recorded conditions: competitive FP assay, MDM2; read-out: IC50 (MDM2)
pIC50: −log10 of the molar value. Where a SMILES comes first, the peptide text is derived from it. Bridges are numbered along the chain shown (N, C = ends). [ ]: non-standard residue; d: D form. Trp(6-Cl) = N[C@@H](Cc1c[nH]c2cc(Cl)ccc12)C(=O)O; R8 = C=CCCCCCC[C@@](C)(N)C(=O)O; Cha = N[C@@H](CC1CCCCC1)C(=O)O; Cba = N[C@@H](CC1CCC1)C(=O)O; hLeu = CC(C)CC[C@H](N)C(=O)O; S5 = C=CCCC[C@](C)(N)C(=O)O; Nle = CCCC[C@H](N)C(=O)O
measured attribute: pIC50

Solved cases (7 shown):
Find the recorded pIC50 belonging to CCCC[C@H](NC(=O)[C@H](C)NC(=O)[C@H](C)NC(=O)[C@]1(C)CCCC=CCCCCCC[C@@](C)(NC(=O)[C@H](Cc2ccccc2)NC(=O)[C@@H](NC(=O)[C@H](CC(C)C)NC(C)=O)[C@@H](C)O)C(=O)N[C@@H](C)C(=O)N[C@@H](Cc2ccc(O)cc2)C(=O)N[C@@H](Cc2c[nH]c3ccccc23)C(=O)N[C@@H](C)C(=O)N[C@@H](C)C(=O)N[C@@H](CC(C)C)C(=O)N1)C(=O)N[C@@H](C(N)=O)C(C)C (single isomer, unassigned) [compound 80] and report it.
7.00 to 8.00

Would you kindly repeat that for CC(=O)N[C@@H](Cc1ccccc1)C(=O)N[C@]1(C)CCCCCCC=CCCC[C@@](C)(C(=O)N[C@@H](Cc2c[nH]cn2)C(=O)N[C@@H](CCCNC(=N)N)C(=O)N[C@@H](Cc2ccccc2)C(=O)N[C@@H](CC2CCCCC2)C(N)=O)NC(=O)[C@H](CC(C)C)NC(=O)[C@H](CCC(N)=O)NC(=O)[C@H](Cc2c[nH]cn2)NC(=O)[C@H](Cc2c[nH]c3ccccc23)NC(=O)[C@H](Cc2c[nH]cn2)NC(=O)[C@H](Cc2c[nH]cn2)NC1=O [compound 55] (Ac-F[R8]HHWHQL[S5]HRF[Cha]-NH2; staple 2-9) ?
< 6.00

Would you kindly repeat that for CC[C@H](C)[C@H](NC(=O)[C@H](C)NC(=O)[C@H](C)NC(=O)[C@]1(C)CCCC=CCCCCCC[C@@](C)(NC(=O)[C@H](Cc2ccccc2)NC(=O)[C@@H](NC(=O)[C@H](CC(C)C)NC(C)=O)[C@@H](C)O)C(=O)N[C@@H](C)C(=O)N[C@@H](Cc2ccc(C(=O)O)cc2)C(=O)N[C@@H](Cc2c[nH]c3ccccc23)C(=O)N[C@@H](C)C(=O)N[C@@H](CCC(N)=O)C(=O)N[C@@H](CC(C)C)C(=O)N1)C(=O)N[C@H](C)C(N)=O (single isomer, unassigned) [compound 182] ?
> 8.00

Would you kindly repeat that for CC(=O)N[C@@H](CC(C)C)C(=O)N[C@H](C(=O)N[C@@H](Cc1ccccc1)C(=O)N[C@]1(C)CCCCCCC=CCCC[C@@](C)(C(=O)N[C@@H](CO)C(=O)N[C@@H](C)C(=O)N[C@@H](CCCNC(=N)N)C(N)=O)NC(=O)[C@H](CC2CCC2)NC(=O)[C@H](CCC(N)=O)NC(=O)[C@H](C)NC(=O)[C@H](Cc2c[nH]c3ccccc23)NC(=O)[C@H](Cc2ccc(O)cc2)NC(=O)[C@H](CCC(=O)O)NC1=O)[C@@H](C)O [compound 366] (Ac-LTF[R8]EYWAQ[Cba][S5]SAR-NH2; staple 4-11) ?
7.00 to 8.00

Would you kindly repeat that for CC(=O)N[C@@H](Cc1ccccc1)C(=O)N[C@]1(C)CCCCCCC=CCCC[C@@](C)(C(=O)N[C@@H](C)C(=O)N[C@@H](C)C(=O)N[C@@H](C)C(=O)N[C@@H](C)C(=O)N[C@@H](C)C(=O)N[C@@H](C)C(=O)N[C@H](C)C(N)=O)NC(=O)[C@H](CC(C)C)NC(=O)[C@H](C)NC(=O)[C@H](CCC(=O)O)NC(=O)[C@H](Cc2c[nH]c3cc(Cl)ccc23)NC(=O)[C@H](Cc2ccc(O)cc2)NC(=O)[C@H](C)NC1=O [compound 339] (Ac-F[R8]AY[Trp(6-Cl)]EAL[S5]AAAAAA[dA]-NH2; staple 2-9) ?
> 8.00

Would you kindly repeat that for CCCC[C@H](NC(=O)[C@H](C)NC(=O)[C@H](C)NC(=O)[C@]1(C)CCCC=CCCCCCC[C@@](C)(NC(=O)[C@H](Cc2ccccc2)NC(=O)[C@H](C)NC(=O)[C@H](C)NC(=O)[C@H](C)NC(C)=O)C(=O)N[C@@H](CCC(=O)O)C(=O)N[C@@H](Cc2ccc(O)cc2)C(=O)N[C@@H](Cc2c[nH]c3ccccc23)C(=O)N[C@@H](C)C(=O)N[C@@H](CCC(N)=O)C(=O)N[C@@H](CC(C)C)C(=O)N1)C(=O)N[C@@H](C)C(N)=O [compound 372] (Ac-AAAF[R8]EYWAQL[S5]AA[Nle]A-NH2; staple 5-12) ?
6.00 to 7.00

Would you kindly repeat that for CCCC[C@H](NC(=O)[C@H](C)NC(=O)[C@H](C)NC(=O)[C@]1(C)CCCC=CCCCCCC[C@@](C)(NC(=O)[C@H](Cc2ccccc2)NC(=O)[C@@H](NC(=O)[C@H](CC(C)C)NC(C)=O)[C@@H](C)O)C(=O)N[C@@H](C)C(=O)N[C@@H](Cc2ccc(O)cc2)C(=O)N[C@@H](Cc2c[nH]c3ccccc23)C(=O)N[C@@H](CO)C(=O)N[C@@H](CCC(N)=O)C(=O)N[C@@H](CC(C)C)C(=O)N1)C(=O)N[C@@H](C)C(N)=O [compound 306] (Ac-LTF[R8]AYWSQL[S5]AA[Nle]A-NH2; staple 4-11) ?
> 8.00

# evaluate next
Find the recorded pIC50 belonging to CCCC[C@H](NC(=O)[C@H](C)NC(=O)[C@H](C)NC(=O)[C@]1(C)CCCC=CCCCCCC[C@@](C)(NC(=O)[C@H](Cc2ccccc2)NC(=O)[C@@H](NC(=O)[C@H](CC(C)C)NC(C)=O)[C@@H](C)O)C(=O)N[C@@H](CCC(=O)O)C(=O)N[C@@H](Cc2ccc(O)cc2)C(=O)N[C@@H](Cc2c[nH]c3ccccc23)C(=O)N[C@@H](C)C(=O)N[C@@H](CCC(N)=O)C(=O)N[C@@H](CCC(C)C)C(=O)N1)C(=O)N[C@@H](C)C(N)=O [compound 318] (Ac-LTF[R8]EYWAQ[hLeu][S5]AA[Nle]A-NH2; staple 4-11) and report it.
7.00 to 8.00

###

- test description: Circular dichroism (CD) analysis of alpha-helicity
- Type: physicochemical
- recorded conditions: benign CD buffer pH 2, 0% TFE, 222 nm, 4° C.
Each item that follows carries a reported Molar Ellipticity Benign (222 in 0% TFE).
# unit: deg cm2 dmol-1 | format: bare number

Find the recorded Molar Ellipticity Benign (222 in 0% TFE) belonging to "CC(=O)N[C@@H](CC(C)C)C(=O)N[C@H](C(=O)N[C@@H](Cc1ccccc1)C(=O)N[C@]1(C)CCCCCCC=CCCC[C@@](C)(C(=O)N[C@@H](CO)C(=O)N[C@@H](C)C(=O)N[C@@H](C)C(N)=O)NC(=O)[C@H](CC(C)C)NC(=O)[C@H](CCC(N)=O)NC(=O)[C@H](C)NC(=O)[C@H](Cc2c[nH]c3ccccc23)NC(=O)[C@H](Cc2ccc(O)cc2)NC(=O)[C@H](C)NC1=O)[C@@H](C)O" and report it.
−398.2

# evaluate next
Find the recorded Molar Ellipticity Benign (222 in 0% TFE) belonging to "CC(=O)N[C@@H](CC(C)C)C(=O)N[C@H](C(=O)N[C@@H](Cc1ccccc1)C(=O)N[C@]1(C)CCCCCCC=CCCC[C@@](C)(C(=O)N[C@@H](C)C(=O)N[C@@H](C)C(=O)N[C@@H](C)C(=O)N[C@@H](C)C(=O)N[C@H](C)C(N)=O)NC(=O)[C@H](CC(C)C)NC(=O)[C@H](CCC(N)=O)NC(=O)[C@H](C)NC(=O)[C@H](Cc2c[nH]c3ccccc23)NC(=O)[C@H](Cc2ccc(O)cc2)NC(=O)[C@H](C)NC1=O)[C@@H](C)O" and report it.
−477.9
